test-protocol: yeast display, Sf9 membrane polyspecificity reagent, FACS + sequencing; frameworks hold sequencing errors
measured-property: polyreactivity (PSR sort gate)

QVQLVESGGGLVQAGGSLRLSCAASGRTFSGYAMGWYRQAPGKERELVAAITSSGSSTYYADSVKGRFTISRDKAKNTVYLQMNCLKPEDTAVYYCAATPQAHSERYYSQRKYDYWGQGTQVTVSS; low polyreactivity
QVQLVESGGGLVQAGCRLRLSCAASGFIFCYNAMGLYRQAPGKERELVAAITTAGSTNYADSVKGRFTISRDNAKNTVYVQMNSLKPEDTAVYYCNKVQLRNRYPYRYGFGDVGYWGQGTQVTVSS; low polyreactivity
QVQLVESGGGLVQAGGSLRLSCAASGRIFLFYAMGWYRQAPGKERELVAAISSTDDTYYADSVKGRFTISRDNAKNTVYLQMNSLKPEDTAVYYSAAYSIISQSEMYYRGQGTQVTVSS; low polyreactivity

* * *

test-protocol: yeast display, Sf9 membrane polyspecificity reagent, FACS + sequencing; frameworks hold sequencing errors
measured-property: polyreactivity (PSR sort gate)

QVQLVESGGGLVQAGGSLRLTCAASGSTFYSYVMGWYRQAPGKERELVAAIDYSGDSTYYADSVKGRFTISRDNAKNTVYLQMNSLKPEDTAVYYCAKDGVWYYSGTGMDYWGHGTQVTVSS; low polyreactivity
QVQLVESGGGLVQAGGSLRLSCAASGFTFYHNAMGWYRQAPGKERELVATITARGGRTYYADSVKGRFTISRDNAKNTVYLQMNSLKPVDTAVYYCNVKASRGYTYEYDYWGQGTQVTVSS; high polyreactivity
QVQLVESGGGLVQAGGSLRISCAASGRTLRYYAMGWYRQAPGKERELVAAITSSDRTYYADSVKGRFTISRDNAKNTVYLQMNSLKPEDTAVYYCAAYRATQFGYYYWGQGTQVTVSS; high polyreactivity
QVQLVESGGGLVQAGCSLRLSCAASGRIFDGNAMGWYRQAPGKERELVAAISWTGGSTYYADSVKGRFTISRDNAKNTVYLQMNSLKPEDTAVYYCAADSGWWLEQWSWYDYWGQGTQVTVSS; low polyreactivity
QVQLVESGGGLVQAGGSLRLSCAASGRIFSYYAMGWYRQAPGKERELVATINWRADTYYADSVKGRFTISRDNAKKTVYLQMNSLKPEDSAVYYCAKRPRPTDKYDYWGQGTQVTVSS; high polyreactivity
QVQVVESGGGLVQAGGSLRLSCAASGSIFATYAMGWYRQAPGKERELVAAITSSDGSTNYADSVKGRFTISRDNAKNTVYLQMNSLKPEDTAVYYCATDAPDRTDSDSGFDAGYDYWGQGTQVTLSS; low polyreactivity
QVQRVDSGGGLVQAGGSLRLSCAASGITFTLYDMGWYRQAPGKERELVASITSDGSTDYADSVKGRFTISRDNAKNTVYLQMISLKPEDTAVYYCNARVTYSWYRFGRSGDDSWGQGTQVTVSS; low polyreactivity
QVQLVESGGGLVQAGGSLRLSCAASGSTFYVNAMGWYRQAPGKERELVAAIRSSAGNTTYADSVKGRFTISRDNAKNTVYLQMNSLKPEDTAVYYCAAETFYDYGGYDYWGQGTQVTVSS; low polyreactivity
QVQLVESGGGLVQAGGSLRLSCAASGRTFGNYVMGWYRQAPGKERELVAAIRSGTNTYYADSVKGRFTISRDNAKNTVYLQMNSLKPEDTAVYYCAAARYTKFDYWGQGTQVTVSS; high polyreactivity
QVQLVESGGGLVQAGGSLRLSCAASGRTFRTNVMGGYIQAPGKERELVADISKRGGSTYYADSVKGRFTISRDNAMNTVYVQINSQKPDDTAVYYCAADYSPYYYHQGDYWGQGTQVTVSS; high polyreactivity
QVQLVESGGGLVQAGGSLRLSCAASGSTFPTYSMGWYRQAPGKERELVAAITSGSGTNTYYADSVKGRFTISRDNAKNTVYLQMNSLKPEDTAVYYCAKSFRKKYGWGQGTQVTVSS; high polyreactivity
